Please respond with reported growth for every item in the list.
Tested on: NCI-H522 lung
measurement notes: NCI-60 one-dose screen, 48 h (100 = growth as untreated, 0 = no growth, -100 = all killed)
settings: 10 µM unless noted
Protocol: Growth inhibition of the NCI-H522 human Non-Small Cell Lung tumor cell line is measured as a screen for anti-cancer activity. Cells are grown in 96 well plates and exposed to the test compound for 48 hours. Compounds are tested at a single concentration, which is 10^-5 M for most compounds. The reported endpoint is percent growth (GI% or GIPRCNT), where numbers from 0 - 100% represent growth inhibition, and numbers from -100% - 0 represent cell death. […]
About 83,000 compounds went through this panel and 20% of them were active in at least one assay; those are over-represented in the sample as a whole.
Value expressed in %; do not type the unit.

What does the record list as growth for COC1(OC)C2(Cl)CCC1(Cl)C(Cl)=C2Cl ?
97

What does the record list as growth for O=c1c2cc(Cl)ccc2oc2ccc(OCCCCCN3CCCCCC3)cc12 ?
80.2

What does the record list as growth for C=C(C)[C@@H]1CC[C@]2(C(=O)O)CC[C@]3(C)[C@H](CC[C@@H]4[C@@]5(C)C[C@@H](CC#Cc6ccc(C(C)=O)s6)[C@H](O)C(C)(C)[C@@H]5CC[C@]43C)[C@@H]12 ?
26

What does the record list as growth for OC(CCCCCCCCC(O)CN1CCc2ccccc2C1)CN1CCc2ccccc2C1 (centres undefined) ?
105

What does the record list as growth for COc1ccc(CNc2c3ccccc3nc3ccc(OC)cc23)cc1 ?
26.2

What does the record list as growth for CN1CCC2(CC1)N=C(SCC(=O)Nc1cnc3ccccc3c1)C(c1ccc(Br)cc1)=N2 ?
-17.5

What does the record list as growth for CC(C)(C)[Si](C)(C)OC1[C@@H](CNC(N)=O)O[C@@H](n2cnc3c(NC(=O)Nc4ccccc4)ncnc32)[C@H]1O[Si](C)(C)C(C)(C)C (some centres undefined) ?
63.8

What does the record list as growth for NC(=S)N1N=C(c2ccc(Cl)cc2)CC1c1cc2ccccc2[nH]c1=O (centres undefined) ?
84.2

What does the record list as growth for CCN(CC)c1ccc(/C=N/N=C(N)N)cc1 ?
27.1

These measurements were taken from PubChem BioAssay (NCI).
